Test system: EtBr-bound CT-DNA
Test: Fluorescence quenching of EtBr-pretreated CT-DNA (Stern–Volmer)
Format: binding, calf
Design: unit not given here
Conditions: 0 to 160 μM compounds
observation_type: KSV (Stern–Volmer quenching constant)

- [Cl][Cu][Cl].c1csc(-c2nc3ccc(-c4ccc5nc(-c6cccs6)c(-c6cccs6)nc5c4)cc3nc2-c2cccs2)c1: 0.0137
- [Cl][Pt][Cl].c1ccc(-c2nc3ccc(-c4ccc5nc(-c6ccccn6)c(-c6ccccn6)nc5c4)cc3nc2-c2ccccn2)nc1: 0.0082
- [Cl][Pt][Cl].c1csc(-c2nc3ccc(-c4ccc5nc(-c6cccs6)c(-c6cccs6)nc5c4)cc3nc2-c2cccs2)c1: 0.0143
- [Cl][Cu][Cl].c1ccc(-c2nc3ccc(-c4ccc5nc(-c6ccccn6)c(-c6ccccn6)nc5c4)cc3nc2-c2ccccn2)nc1: 0.0105

###

Biological target: human serum albumin (HSA) (Homo sapiens, UniProt P02768)
Sequence (P02768 25-609): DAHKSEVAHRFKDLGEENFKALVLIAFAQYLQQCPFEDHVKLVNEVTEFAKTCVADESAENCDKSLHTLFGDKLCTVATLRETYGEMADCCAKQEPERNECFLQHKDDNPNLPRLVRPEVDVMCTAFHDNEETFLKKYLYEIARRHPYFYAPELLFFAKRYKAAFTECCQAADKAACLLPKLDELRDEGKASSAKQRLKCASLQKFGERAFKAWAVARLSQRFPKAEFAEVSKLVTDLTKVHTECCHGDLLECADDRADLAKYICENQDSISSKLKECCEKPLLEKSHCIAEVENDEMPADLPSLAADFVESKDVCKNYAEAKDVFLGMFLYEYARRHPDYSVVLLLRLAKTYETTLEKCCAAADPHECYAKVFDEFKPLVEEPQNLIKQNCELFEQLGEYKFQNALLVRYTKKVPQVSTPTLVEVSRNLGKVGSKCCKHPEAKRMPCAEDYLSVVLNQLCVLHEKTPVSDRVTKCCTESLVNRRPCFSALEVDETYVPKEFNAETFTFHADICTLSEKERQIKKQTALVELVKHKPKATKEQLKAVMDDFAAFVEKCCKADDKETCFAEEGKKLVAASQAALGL
Assay: UV titration with HSA
Settings: binding to HSA, 310-340 K
observation_type: ΔH^o (standard enthalpy change) (J)

* [Cl][Cu][Cl].c1csc(-c2nc3ccc(-c4ccc5nc(-c6cccs6)c(-c6cccs6)nc5c4)cc3nc2-c2cccs2)c1 [Cu(ttbq)Cl2] | 53100
* [Cl][Pt][Cl].c1ccc(-c2nc3ccc(-c4ccc5nc(-c6ccccn6)c(-c6ccccn6)nc5c4)cc3nc2-c2ccccn2)nc1 [Pt(tpbq)Cl2] | 22900
* [Cl][Pt][Cl].c1csc(-c2nc3ccc(-c4ccc5nc(-c6cccs6)c(-c6cccs6)nc5c4)cc3nc2-c2cccs2)c1 [Pt(ttbq)Cl2] | 33200
* [Cl][Cu][Cl].c1ccc(-c2nc3ccc(-c4ccc5nc(-c6ccccn6)c(-c6ccccn6)nc5c4)cc3nc2-c2ccccn2)nc1 [Cu(tpbq)Cl2] | 120800

###

Reported values of IC50 for individual entries
Tested on: CHO-K1 cells
Assay: MTT cell viability assay (non-cancer control)
Assay type: cell-based, Chinese hamster
Conditions: CHO-K1, 48 h exposure
observation_type: IC50

* [Cl][Pt][Cl].c1csc(-c2nc3ccc(-c4ccc5nc(-c6cccs6)c(-c6cccs6)nc5c4)cc3nc2-c2cccs2)c1 | > 100 µM
* [Cl][Pt][Cl].c1ccc(-c2nc3ccc(-c4ccc5nc(-c6ccccn6)c(-c6ccccn6)nc5c4)cc3nc2-c2ccccn2)nc1 | 86.6 µM
* [Cl][Cu][Cl].c1csc(-c2nc3ccc(-c4ccc5nc(-c6cccs6)c(-c6cccs6)nc5c4)cc3nc2-c2cccs2)c1 | > 100 µM
* [Cl][Cu][Cl].c1ccc(-c2nc3ccc(-c4ccc5nc(-c6ccccn6)c(-c6ccccn6)nc5c4)cc3nc2-c2ccccn2)nc1 | > 100 µM

###

Reported values of pIC50 for individual entries
Tested on: LN229 cells
Assay: MTT cell viability assay
Type: cell-based, human
Conditions: LN229, 48 h exposure
pIC50: −log10 of the molar value.
observation_type: pIC50

- [Cl][Cu][Cl].c1csc(-c2nc3ccc(-c4ccc5nc(-c6cccs6)c(-c6cccs6)nc5c4)cc3nc2-c2cccs2)c1: 4.44
- [Cl][Pt][Cl].c1csc(-c2nc3ccc(-c4ccc5nc(-c6cccs6)c(-c6cccs6)nc5c4)cc3nc2-c2cccs2)c1: 4.35
- [Cl][Pt][Cl].c1ccc(-c2nc3ccc(-c4ccc5nc(-c6ccccn6)c(-c6ccccn6)nc5c4)cc3nc2-c2ccccn2)nc1: 4.04

The origin of these recorded values is paper PMC10849753.
